# Tested On: NMDAR (1A/2B) (Homo sapiens, UniProt Q05586+Q13224)
# Sequence (Q13224 27-1484, other chains not shown): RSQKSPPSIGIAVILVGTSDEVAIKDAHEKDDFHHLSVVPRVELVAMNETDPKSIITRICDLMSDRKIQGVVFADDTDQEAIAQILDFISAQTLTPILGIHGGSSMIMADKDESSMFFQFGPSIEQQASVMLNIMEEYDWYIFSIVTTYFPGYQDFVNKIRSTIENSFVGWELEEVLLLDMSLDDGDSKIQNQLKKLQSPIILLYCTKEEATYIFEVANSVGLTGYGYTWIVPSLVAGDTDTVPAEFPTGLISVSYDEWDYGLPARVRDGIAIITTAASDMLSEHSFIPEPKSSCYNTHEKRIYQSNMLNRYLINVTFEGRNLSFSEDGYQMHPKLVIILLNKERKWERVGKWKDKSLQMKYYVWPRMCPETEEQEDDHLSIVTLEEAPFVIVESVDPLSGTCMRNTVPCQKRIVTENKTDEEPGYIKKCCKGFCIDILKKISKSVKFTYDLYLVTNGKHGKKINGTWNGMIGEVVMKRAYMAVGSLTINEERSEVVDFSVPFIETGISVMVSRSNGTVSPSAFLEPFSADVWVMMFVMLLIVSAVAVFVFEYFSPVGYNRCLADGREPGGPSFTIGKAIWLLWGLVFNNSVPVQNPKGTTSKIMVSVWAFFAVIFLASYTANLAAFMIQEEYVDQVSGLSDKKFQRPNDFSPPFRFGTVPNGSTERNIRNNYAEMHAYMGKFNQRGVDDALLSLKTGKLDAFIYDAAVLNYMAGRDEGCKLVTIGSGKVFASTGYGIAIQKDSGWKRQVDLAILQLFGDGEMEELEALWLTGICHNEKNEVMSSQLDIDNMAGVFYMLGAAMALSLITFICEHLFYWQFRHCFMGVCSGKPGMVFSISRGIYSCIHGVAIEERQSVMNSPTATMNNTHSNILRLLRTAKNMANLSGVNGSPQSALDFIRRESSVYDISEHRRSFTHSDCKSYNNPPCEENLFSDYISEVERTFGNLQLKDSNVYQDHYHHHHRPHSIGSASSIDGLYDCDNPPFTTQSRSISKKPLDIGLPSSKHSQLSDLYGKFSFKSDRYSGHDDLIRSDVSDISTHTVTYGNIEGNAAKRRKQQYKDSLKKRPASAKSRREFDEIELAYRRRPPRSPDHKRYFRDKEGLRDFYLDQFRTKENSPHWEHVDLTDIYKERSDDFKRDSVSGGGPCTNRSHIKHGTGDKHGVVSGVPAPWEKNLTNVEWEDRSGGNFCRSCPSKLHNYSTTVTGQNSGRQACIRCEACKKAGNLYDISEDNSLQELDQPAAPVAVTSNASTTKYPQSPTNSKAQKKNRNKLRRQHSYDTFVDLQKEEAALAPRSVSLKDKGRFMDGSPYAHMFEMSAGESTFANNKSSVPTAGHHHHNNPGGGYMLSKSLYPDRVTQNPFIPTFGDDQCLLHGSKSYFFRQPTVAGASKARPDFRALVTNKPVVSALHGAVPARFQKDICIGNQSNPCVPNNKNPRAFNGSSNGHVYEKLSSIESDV
# Experiment Description: Ion Channel NMDAR (1A/2B) Blocker
// values below are reported IC50
Reported Property: IC50

INSERT INTO measurements (molecule, reported_property, experimental_result) VALUES
  ('CC(C)(C)c1ccc(C#CC(O)c2ccccc2)cc1 (racemic)', 'IC50', '> 10 µM'),
  ('Clc1cccc(C#Cc2n[nH]c3ncccc23)c1', 'IC50', '> 10 µM');

###

Assay read-out IC50; system under study: UniProt Q14432.
Sequence (Q14432 whole entry): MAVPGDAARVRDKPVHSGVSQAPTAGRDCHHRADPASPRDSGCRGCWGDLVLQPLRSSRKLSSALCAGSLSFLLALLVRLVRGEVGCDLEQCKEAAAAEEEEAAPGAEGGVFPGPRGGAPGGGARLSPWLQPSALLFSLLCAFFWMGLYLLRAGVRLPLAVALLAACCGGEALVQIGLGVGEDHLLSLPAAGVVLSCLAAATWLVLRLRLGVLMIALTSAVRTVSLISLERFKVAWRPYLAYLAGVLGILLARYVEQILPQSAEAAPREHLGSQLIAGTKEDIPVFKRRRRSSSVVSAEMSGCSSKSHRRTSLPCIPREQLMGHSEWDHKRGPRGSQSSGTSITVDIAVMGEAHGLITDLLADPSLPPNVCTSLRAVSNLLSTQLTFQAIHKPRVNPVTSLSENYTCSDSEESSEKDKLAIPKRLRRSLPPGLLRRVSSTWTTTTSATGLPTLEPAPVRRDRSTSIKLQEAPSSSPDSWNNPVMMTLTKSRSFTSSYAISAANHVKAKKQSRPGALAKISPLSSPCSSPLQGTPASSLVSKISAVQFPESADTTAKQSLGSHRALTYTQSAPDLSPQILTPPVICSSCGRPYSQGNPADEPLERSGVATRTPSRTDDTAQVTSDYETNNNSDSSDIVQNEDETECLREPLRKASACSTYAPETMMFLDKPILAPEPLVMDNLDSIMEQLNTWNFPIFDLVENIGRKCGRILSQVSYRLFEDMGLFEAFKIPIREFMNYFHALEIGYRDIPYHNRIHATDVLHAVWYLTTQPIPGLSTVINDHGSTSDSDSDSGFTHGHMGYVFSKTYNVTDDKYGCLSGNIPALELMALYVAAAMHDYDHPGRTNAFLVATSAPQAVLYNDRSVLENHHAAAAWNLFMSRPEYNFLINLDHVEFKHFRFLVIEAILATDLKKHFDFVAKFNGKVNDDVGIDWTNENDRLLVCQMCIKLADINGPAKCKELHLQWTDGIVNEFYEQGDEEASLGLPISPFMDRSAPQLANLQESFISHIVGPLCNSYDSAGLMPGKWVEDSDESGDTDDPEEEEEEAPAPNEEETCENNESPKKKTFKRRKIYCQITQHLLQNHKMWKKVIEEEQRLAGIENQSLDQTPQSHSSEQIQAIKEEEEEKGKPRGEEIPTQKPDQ
Reported Property: IC50

INSERT INTO results (molecule, experimental_result) VALUES
  ('CC(C)(C)c1ccc(C#CC(O)c2ccccc2)cc1 (racemic)', '> 10 µM'),
  ('Clc1cccc(C#Cc2n[nH]c3ncccc23)c1', '> 10 µM');

###

# Tested On: CAV1.2 (Homo sapiens)
# Experiment Description: Ion Channel CAV1.2 Blocker
# Assay type: cell-based
# Test Parameters: Ion Channel CAV1.2 Blocker; read-out: Max response
Reported Property: Emax at 30 min

INSERT INTO assay_data (compound, experimental_result) VALUES
  ('CC(C)(C)c1ccc(C#CC(O)c2ccccc2)cc1 (racemic)', '7.2%');

###

# System: EKP-induced epileptiform discharges in zebrafish larvae
# Experiment Description: Zebrafish EKP seizure model, electrophysiology (non-invasive LFP recordings, PSD analysis)
# Type: in vivo, zebrafish (Danio rerio)
# Test Parameters: 2 μM, 22 h incubation, 7 dpf larvae; mean, normalized PSD 20-90 Hz
Reported Property: efficacy against EKP-induced epileptiform discharges 2 μM

INSERT INTO results (compound, tested_on, experimental_result) VALUES
  ('CC(C)(C)c1ccc(C2=CC(c3ccccc3)=CS(C)(=O)=C2)cc1 (stereo not shown) [Compound 9.1]', 'EKP-induced epileptiform discharges in zebrafish larvae', '51%'),
  ('Cc1cccc(C#CC(=O)c2ccccc2)c1 [Compound 1.33, 1-phenyl-3-(m-tolyl)prop-2-yn-1-one]', 'EKP-induced epileptiform discharges in zebrafish larvae', '50%'),
  ('Nc1ncccc1C(=O)C#Cc1ccccc1 [Compound 1.1]', 'EKP-induced epileptiform discharges in zebrafish larvae', '65%'),
  ('COC(=O)c1ccc(C#CC(=O)c2cccnc2N)cc1 [Compound 1.8]', 'EKP-induced epileptiform discharges in zebrafish larvae', '18%'),
  ('CC(C)(C)c1ccc(-c2cc(=O)c3ccccc3[nH]2)cc1 [Compound 7.1]', 'EKP-induced epileptiform discharges in zebrafish larvae', '−118%'),
  ('CC(C)(C)c1ccc(C#CC=O)cc1 [Compound 2.1, 3-(4-(tert-butyl)phenyl)propiolaldehyde]', 'EKP-induced epileptiform discharges in zebrafish larvae', '30%'),
  ('O=C(C#Cc1ccccc1)c1ccccc1 [Compound 1.28, 1,3-diphenylprop-2-yn-1-one]', 'EKP-induced epileptiform discharges in zebrafish larvae', '25%'),
  ('CC(C)(C)c1ccc(C#CC(=O)c2cccc(F)c2)cc1 [Compound 1.39]', 'EKP-induced epileptiform discharges in zebrafish larvae', '−61%'),
  ('O=C(C#Cc1ccccc1Cl)c1ccccc1 [Compound 1.38]', 'EKP-induced epileptiform discharges in zebrafish larvae', '−63%'),
  ('O=C(C#Cc1cccc(Cl)c1)c1ncc[nH]1 [Compound 1.26]', 'EKP-induced epileptiform discharges in zebrafish larvae', '51%');

The reported measurements were obtained from patent US20250186408A1.
